# TESTED_SYSTEM: recombinant human Myt1 (full length PKMYT1) (Homo sapiens, UniProt Q99640)
# Sequence (Q99640 whole entry): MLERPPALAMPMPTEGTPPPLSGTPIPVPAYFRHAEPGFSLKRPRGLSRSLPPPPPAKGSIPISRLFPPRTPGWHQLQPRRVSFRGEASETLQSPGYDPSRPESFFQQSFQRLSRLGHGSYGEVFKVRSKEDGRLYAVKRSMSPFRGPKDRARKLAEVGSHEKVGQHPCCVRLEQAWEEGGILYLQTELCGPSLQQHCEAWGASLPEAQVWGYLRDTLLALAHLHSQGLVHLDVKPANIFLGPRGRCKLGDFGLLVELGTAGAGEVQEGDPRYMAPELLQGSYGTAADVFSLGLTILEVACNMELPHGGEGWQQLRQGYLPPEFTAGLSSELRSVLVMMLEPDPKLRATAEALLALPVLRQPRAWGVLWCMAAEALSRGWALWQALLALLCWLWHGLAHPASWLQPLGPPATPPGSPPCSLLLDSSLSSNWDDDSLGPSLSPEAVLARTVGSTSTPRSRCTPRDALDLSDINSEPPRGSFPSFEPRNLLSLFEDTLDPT
# TEST_DETAILS: Myt1 enzymatic assay (ADP-Glo kinase assay, ATP hydrolysis)
VALUE_TYPE: pIC50
Give bare numbers, as −log10 of the molar value.

Looking for the measured pIC50 of Cc1ccc(O)cc1-n1c(N)c(C(N)=O)c2nc(Cl)ccc21 [Compound 4] , can you help?
6.04
